Target: Fructose-1,6-bisphosphatase 1 (Homo sapiens) (UniProt P09467)
Sequence (P09467 whole entry): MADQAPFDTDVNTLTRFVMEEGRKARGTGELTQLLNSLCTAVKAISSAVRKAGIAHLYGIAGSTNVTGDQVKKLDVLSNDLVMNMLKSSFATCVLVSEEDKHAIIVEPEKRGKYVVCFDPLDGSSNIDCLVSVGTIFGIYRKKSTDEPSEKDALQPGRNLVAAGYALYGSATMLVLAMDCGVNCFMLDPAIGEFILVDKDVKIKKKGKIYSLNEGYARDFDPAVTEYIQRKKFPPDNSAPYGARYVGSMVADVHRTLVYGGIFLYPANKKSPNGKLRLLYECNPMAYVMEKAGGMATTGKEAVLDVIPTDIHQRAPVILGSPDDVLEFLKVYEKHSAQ
Assay: Inhibition of human liver FBP1 at 200 uM incubated for 5 mins by fluorescence method relative to control
MEASURED METRIC: inhibition (%)
Hi! Could you send only the number? It should be in %, unit omitted.

{"CPD SMILES": "Oc1ccc(-c2[o+]c3c(O)c(O)cc(O)c3cc2O)cc1O", "MEASURED METRIC": "inhibition", "READING": 46}

Problem: Which inhibition is reported for this compound? O=c1c(O)c(-c2ccc(O)c(O)c2)oc2ccccc12
Result: 20

* * *

Target: Fructose-1,6-bisphosphatase 1 (Homo sapiens) (UniProt P09467)
Experiment: Inhibition of human liver FBP1 at 200 uM incubated for 5 mins by fluorescence method relative to control
MEASURED METRIC: inhibition

Example molecules with recorded inhibition:
{"CPD SMILES": "O=c1cc(-c2ccccc2)oc2ccccc12", "inhibition": "< 20%"}
{"CPD SMILES": "O=c1c(O)c(-c2ccc(O)cc2)oc2cc(O)cc(O)c12", "inhibition": "< 20%"}
{"CPD SMILES": "O=c1cc(-c2ccc(O)c(O)c2)oc2cc(O)ccc12", "inhibition": "< 20%"}
{"CPD SMILES": "COc1cc2oc(-c3ccccc3)cc(=O)c2c(O)c1O", "inhibition": "46%"}

Problem: Which inhibition is reported for this molecule? O=c1c(O)c(-c2ccc(O)cc2O)oc2cc(O)cc(O)c12
Result: < 20%

Problem: Which inhibition is reported for this molecule? O=c1c(O)c(-c2ccccc2)oc2cc(O)cc(O)c12
Result: < 20%

* * *

Target: Fructose-1,6-bisphosphatase 1 (Homo sapiens)
Assay: Inhibition of human liver FBP1 at 200 uM incubated for 5 mins by fluorescence method relative to control
MEASURED METRIC: inhibition

Example molecules with recorded inhibition:
{"CPD SMILES": "O=C(O)[C@H]1O[C@@H](Oc2cc3oc(-c4ccccc4)cc(=O)c3c(O)c2O)[C@H](O)[C@@H](O)[C@@H]1O", "SYSTEM TESTED": "Fructose-1,6-bisphosphatase 1 (Homo sapiens)", "READING": "< 20%"}
{"CPD SMILES": "COc1ccc2c(=O)c(O)c(-c3ccc(O)c(O)c3)oc2c1OC", "SYSTEM TESTED": "Fructose-1,6-bisphosphatase 1 (Homo sapiens)", "READING": "< 20%"}

Problem: Which inhibition is reported for this molecule? COc1ccc(-c2oc3cc(OC)ccc3c(=O)c2O)cc1
Result: < 20%
